// data source = patent US20170253607A1

experimental-target: HIV-1 PR (Human immunodeficiency virus type 1 group M subtype B)
assay-info: HIV-protease inhibitory activity assay (FRET peptide substrate)
measurement-setup: Test Example 1
pIC50: −log10 of the molar value.

molecule	pIC50
COc1ccc(S(=O)(=O)N(CC(C)C)C[C@@H](O)[C@H](Cc2ccc(N3CC[C@H](Oc4ccccc4-n4nc5c(c4C(=O)O)CC(C)(C)CC5)C3)cc2)NC(=O)O[C@H]2CO[C@@]3(C)OCC[C@@H]23)cc1	8.81
COc1ccc(S(=O)(=O)N(CC(C)C)CC(O)C(Cc2ccc(N(C)Cc3cc(N4CCCC4)ccc3-c3sc4c(c3C(=O)O)CC(C)(C)CC4)cc2)NC(=O)OC2COC3(C)OCCC23)cc1 (centres unmarked)	8.54
COc1ccc(S(=O)(=O)N(CC(C)C)CC(O)C(Cc2ccc(NCc3cnc4ccccc4c3-c3sc4c(c3C(=O)O)CC(C)(C)CC4)cc2)NC(=O)OC2COC3(C)OCCC23)cc1 (centres unmarked)	8.18
COc1ccc(S(=O)(=O)N(CC(C)C)CC(O)C(Cc2ccc(C3=CCC(c4sc5c(c4C(=O)O)CC(C)(C)CC5)CC3)cc2)NC(=O)OC2COC3(C)OCCC23)cc1 (centres unmarked)	7.92
COc1ccc(S(=O)(=O)N(CC(C)C)CC(O)C(Cc2ccc(OCc3ccccc3-c3ccc(-n4nc(C(=O)O)c5c4CCC(C)(C)C5)cc3)cc2)NC(=O)OC2COC3(C)OCCC23)cc1 (centres unmarked)	8.64

====

assay-info: Evaluation of total body clearance (CLtot), intravenous administration
Assay type: in vivo, Sprague-Dawley (SD)
measurement-setup: rat (SD), intravenous administration 0.5-10 mg/kg; CLtot = dose/AUC
In this section we review reported log10 of rat_CLt values for a set of molecules.
readout-kind: log10 of rat_CLt (log10 of the value in mL/min/kg)

molecule	log10 of rat_CLt
CC1(C)CCc2sc(NC(=O)c3ccccc3CNc3ccc(CC(NC(=O)OC4COC5(C)OCCC45)C(O)CN(CC4CCCC4)S(=O)(=O)c4ccc5c(c4)OCO5)cc3)c(C(=O)O)c2C1 (stereo not shown) [Compound I-600]	-0.98
COc1ccc(S(=O)(=O)N(CC(C)C)CC(O)C(Cc2ccc(OCc3ccccc3-c3sc4c(c3C(=O)O)CC(C)(C)CC4)cc2)NC(=O)OC2COC3OCCC23)cc1 (stereo not shown) [Compound I-826]	-0.08
COc1ccc(S(=O)(=O)N(CC(C)C)CC(O)C(Cc2ccc(NCc3cccc(C(=O)Nc4sc5c(c4C(=O)O)CC(C)(C)CC5)c3)cc2)NC(=O)OC2COC3(C)OCCC23)cc1 (stereo not shown) [Compound I-436]	0.24
COc1ccc(S(=O)(=O)N(CC(C)C)CC(O)C(Cc2ccc(NCc3ccc(OC)cc3C(=O)Nc3sc4c(c3C(=O)O)CC(C)(C)CC4)cc2)NC(=O)OC2COC3(C)OCCC23)cc1 (stereo not shown) [Compound I-580]	-1.17
COc1ccc(S(=O)(=O)N(CC(C)C)CC(O)C(Cc2ccc(N(C)Cc3ccc(C(F)(F)F)cc3-c3sc4c(c3C(=O)O)CC(C)(C)CC4)cc2)NC(=O)OC2COC3(C)OCCC23)cc1 (stereo not shown) [Compound I-540]	0.18
COc1ccc(S(=O)(=O)N(CC(C)C)CC(O)C(Cc2ccc(N(C)Cc3ccc(-c4sc5c(c4C(=O)O)CC(C)(C)CC5)cc3)cc2)NC(=O)OC2COC3(C)OCCC23)cc1 (stereo not shown) [Compound I-450]	0.57
COc1ccc(S(=O)(=O)N(CC2CCC2)CC(O)C(Cc2ccc(NCc3ccccc3-c3sc4c(c3C(=O)O)CC(C)(C)CC4)cc2)NC(=O)OC2COC3(C)OCCC23)cc1 (stereo not shown) [Compound I-474]	0.11
CC1(C)CCc2sc(-c3ccccc3COc3ccc(CC(NC(=O)OC4COC5(C)OCCC45)C(O)CN(CC(F)F)S(=O)(=O)c4ccc5ncsc5c4)cc3)c(C(=O)O)c2C1 (stereo not shown) [Compound I-147]	0.23
COc1ccc(S(=O)(=O)N(CC(C)C)CC(O)C(Cc2ccc(NCc3ccccc3-c3sc4c(c3C(=O)O)CC(C)(C)CC4)cc2)NC(=O)OC2COC3(C)OCCC23O)cc1 (stereo not shown) [Compound I-890]	-0.19
COc1ccc(S(=O)(=O)N(CC(C)C)CC(O)C(Cc2ccc(NCc3cccc(F)c3-c3sc4c(c3C(=O)O)CC(C)(C)CC4)cc2)NC(=O)OC2COC3(C)OCCC23)cc1 (stereo not shown) [Compound I-277]	-0.29

====

assay-info: Evaluation of total body clearance (CLtot), intravenous administration
Type: in vivo, Sprague-Dawley (SD)
measurement-setup: rat (SD), intravenous administration 0.5-10 mg/kg; CLtot = dose/AUC
readout-kind: rat_CLt (mL/min/kg)

compound	readout-kind	observed-result
CC(C)CN(CC(O)C(Cc1ccc(OCc2ccccc2-c2sc3c(c2C(=O)O)CC(C)(C)CC3(C)C)cc1)NC(=O)OC1COC2(C)OCCC12)S(=O)(=O)c1ccc2ncsc2c1 (stereo not drawn) [Compound I-119]	rat_CLt	2.29
COc1ccc(S(=O)(=O)N(CC2CCCC2)CC(O)C(Cc2ccc(OCc3ccccc3-n3nc4c(c3C(=O)O)CC(C)(C)CC4)cc2)NC(=O)OC2COC3(C)OCCC23)cc1 (stereo not drawn) [Compound I-139]	rat_CLt	0.286
COc1ccc(S(=O)(=O)N(CC2CCCC2)CC(O)C(Cc2ccc(OCc3nc(C)sc3-c3sc4c(c3C(=O)O)CC(C)(C)CC4)cc2)NC(=O)OC2COC3(C)OCCC23)cc1 (stereo not drawn) [Compound I-248]	rat_CLt	2.47

====

experimental-target: HIV-1 PR (Human immunodeficiency virus type 1 group M subtype B)
assay-info: HIV-protease inhibitory activity assay (FRET peptide substrate)
measurement-setup: Test Example 1
Parameter IC50: see the listing below.

molecule	experimental-target	IC50
COc1ccc(S(=O)(=O)N(CC(C)C)CC(O)C(Cc2ccc(NCc3cc4ccccc4cc3-c3sc4c(c3C(=O)O)CC(C)(C)CC4)cc2)NC(=O)OC2COC3(C)OCCC23)cc1 (centres unmarked)	HIV-1 PR (Human immunodeficiency virus type 1 group M subtype B)	4.02 nM
COc1ccc(S(=O)(=O)N(CC(C)C)CC(O)C(Cc2ccc(OCC3=C(c4sc5c(c4C(=O)O)CC(C)(C)CC5)CCCC3)cc2)NC(=O)OC2COC3(C)OCCC23)cc1 (centres unmarked)	HIV-1 PR (Human immunodeficiency virus type 1 group M subtype B)	4.24 nM
COc1ccc(S(=O)(=O)N(CC(C)C)CC(O)C(Cc2ccc(N(C)Cc3ccccc3-c3ccc(Nc4sc5c(c4C(=O)O)CC(C)(C)CC5)nc3)cc2)NC(=O)OC2COC3(C)OCCC23)cc1 (centres unmarked)	HIV-1 PR (Human immunodeficiency virus type 1 group M subtype B)	6.4 nM
COc1ccc(S(=O)(=O)N(CC(C)C)CC(O)C(Cc2ccc(N(C)Cc3ccc(Oc4ccccc4)cc3-c3sc4c(c3C(=O)O)CC(C)(C)CC4)cc2)NC(=O)OC2COC3(C)OCCC23)cc1 (centres unmarked)	HIV-1 PR (Human immunodeficiency virus type 1 group M subtype B)	12.2 nM
COc1ccc(S(=O)(=O)N(CC(C)C)CC(O)C(Cc2ccc(OCC3=C(c4sc5c(c4C(=O)O)CC(C)(C)CC5)COC3)cc2)NC(=O)OC2COC3(C)OCCC23)cc1 (centres unmarked)	HIV-1 PR (Human immunodeficiency virus type 1 group M subtype B)	1.25 nM

====

# maps each entry to its pIC50
experimental-target: HIV-1 PR (Human immunodeficiency virus type 1 group M subtype B)
assay-info: HIV-protease inhibitory activity assay (FRET peptide substrate)
measurement-setup: Test Example 1
pIC50: −log10 of the molar value.
readout-kind: pIC50

molecule	experimental-target	observed-result
COc1ccc(S(=O)(=O)N(CC(C)C)CC(O)C(Cc2ccc(N(Cc3ccccc3-c3sc4c(c3C(=O)O)CC(C)(C)CC4)CC3CCCC3)cc2)NC(=O)OC2COC3(C)OCCC23)cc1 (centres unmarked) [Compound I-456]	HIV-1 PR (Human immunodeficiency virus type 1 group M subtype B)	7.87
COc1ccc(S(=O)(=O)N(CC(C)C)CC(O)C(Cc2ccc(NCc3ccccc3-c3c(C(=O)O)[nH]c4ccc(OC)cc34)cc2)NC(=O)OC2COC3(C)OCCC23)cc1 (centres unmarked) [Compound I-506]	HIV-1 PR (Human immunodeficiency virus type 1 group M subtype B)	8.77
CC(C)CN(CC(O)C(Cc1ccc(OCCOc2ccc(-c3ccc(F)cc3F)cc2C(=O)O)cc1)NC(=O)OC1COC2OCCC12)S(=O)(=O)c1ccc2ncsc2c1 (centres unmarked) [Compound I-814]	HIV-1 PR (Human immunodeficiency virus type 1 group M subtype B)	9.12
COc1ccc(S(=O)(=O)N(CC(C)C)CC(O)C(Cc2ccc(N(C)CC3CC(C)(C)CCC3c3sc4c(c3C(=O)O)CC(C)(C)CC4)cc2)NC(=O)OC2COC3(C)OCCC23)cc1 (centres unmarked) [Compound I-769]	HIV-1 PR (Human immunodeficiency virus type 1 group M subtype B)	8.22
CC(C)CN(CC(O)C(Cc1ccc(NCc2cc(C(F)(F)F)ccc2-c2sc3c(c2C(=O)O)CC(C)(C)CC3)cc1)NC(=O)OC1COC2OCCC12)S(=O)(=O)c1ccc2c(c1)OCO2 (centres unmarked) [Compound I-874]	HIV-1 PR (Human immunodeficiency virus type 1 group M subtype B)	8.29
COc1ccc(S(=O)(=O)N(CC(C)C)CC(O)C(Cc2ccc(NCc3ccc(-c4sc5c(c4C(=O)O)CC(C)(C)CC5)cc3F)cc2)NC(=O)OC2COC3(C)OCCC23)cc1 (centres unmarked) [Compound I-282]	HIV-1 PR (Human immunodeficiency virus type 1 group M subtype B)	8.39
COc1ccc(S(=O)(=O)N(CC(C)C)C[C@@H](O)[C@H](Cc2ccc(NC3CN(c4ccccc4-c4sc5c(c4C(=O)O)CC(C)(C)CC5)C3)cc2)NC(=O)O[C@H]2CO[C@@]3(C)OCC[C@@H]23)cc1 [Compound I-228]	HIV-1 PR (Human immunodeficiency virus type 1 group M subtype B)	8.40
COc1ccc(S(=O)(=O)N(CC(C)C)CC(O)C(Cc2ccc(NCc3cc(C)ccc3-c3sc4c(c3C(=O)O)CC(C)(C)CC4)cc2)NC(=O)OC2COC3(C)OCCC23)cc1 (centres unmarked) [Compound I-545]	HIV-1 PR (Human immunodeficiency virus type 1 group M subtype B)	8.73
COc1ccc(S(=O)(=O)N(CC(C)C)CC(O)C(Cc2ccc(NCc3c(C(=O)O)[nH]c4ccc(Cl)cc34)cc2)NC(=O)OC2COC3(C)OCCC23)cc1 (centres unmarked) [Compound I-319]	HIV-1 PR (Human immunodeficiency virus type 1 group M subtype B)	8.68
COc1ccc(S(=O)(=O)N(CC(C)C)CC(O)C(Cc2ccc(OCC3CCCN3c3ccc(C#N)cc3-c3sc4c(c3C(=O)O)CC(C)(C)CC4)cc2)NC(=O)OC2COC3(C)OCCC23)cc1 (centres unmarked) [Compound I-326]	HIV-1 PR (Human immunodeficiency virus type 1 group M subtype B)	8.04
COc1ccc(S(=O)(=O)N(CC(C)C)CC(O)C(Cc2ccc(NCc3nc(N4CCCCC4)sc3-c3sc4c(c3C(=O)O)CC(C)(C)CC4)cc2)NC(=O)OC2COC3(C)OCCC23)cc1 (centres unmarked) [Compound I-737]	HIV-1 PR (Human immunodeficiency virus type 1 group M subtype B)	8.70
COc1ccc(S(=O)(=O)N(CC(C)C)CC(O)C(Cc2ccc(NCc3ccccc3OCC(=O)O)cc2)NC(=O)OC2COC3(C)OCCC23)cc1 (centres unmarked) [Compound I-315]	HIV-1 PR (Human immunodeficiency virus type 1 group M subtype B)	8.70
CC(C)CN(CC(O)C(Cc1ccc(OCc2ccccc2-c2sc3c(c2C(=O)O)CC(C)(C)CC3)cc1)NC(=O)OC1COC2(C)OCCC12)S(=O)(=O)c1ccc2nc(N)sc2c1 (centres unmarked) [Compound I-51]	HIV-1 PR (Human immunodeficiency virus type 1 group M subtype B)	8.58
CC1(C)CCc2sc(-c3ccccc3CNc3ccc(CC(NC(=O)OC4COC5(C)OCCC45)C(O)CN(CC4CCCC4)S(=O)(=O)c4ccc5ncsc5c4)cc3)c(C(=O)O)c2C1 (centres unmarked) [Compound I-513]	HIV-1 PR (Human immunodeficiency virus type 1 group M subtype B)	8.75
COc1ccc(S(=O)(=O)N(CC(C)C)CC(O)C(Cc2ccc(N(C)Cc3cc(N4CCN(C)CC4)ccc3-c3sc4c(c3C(=O)O)CC(C)(C)CC4)cc2)NC(=O)OC2COC3(C)OCCC23)cc1 (centres unmarked) [Compound I-701]	HIV-1 PR (Human immunodeficiency virus type 1 group M subtype B)	8.83
COc1ccc(S(=O)(=O)N(CC(C)C)C[C@@H](O)[C@H](Cc2ccc(OCc3sc4ccccc4c3C(=O)O)cc2)NC(=O)O[C@H]2CO[C@@]3(C)OCC[C@@H]23)cc1 [Compound I-5]	HIV-1 PR (Human immunodeficiency virus type 1 group M subtype B)	8.94
COc1ccc(S(=O)(=O)N(CC(C)C)CC(O)C(Cc2ccc(OCc3ccccc3-c3c(OCc4ccccc4)noc3C(=O)O)cc2)NC(=O)OC2COC3(C)OCCC23)cc1 (centres unmarked) [Compound I-344]	HIV-1 PR (Human immunodeficiency virus type 1 group M subtype B)	8.55
COc1ccc(S(=O)(=O)N(CC(C)C)CC(O)C(Cc2ccc(NCc3cc4ccccc4nc3-c3sc4c(c3C(=O)O)CC(C)(C)CC4)cc2)NC(=O)OC2COC3(C)OCCC23)cc1 (centres unmarked) [Compound I-652]	HIV-1 PR (Human immunodeficiency virus type 1 group M subtype B)	8.61
COc1ccc(S(=O)(=O)N(CC(C)C)CC(O)C(Cc2ccc(N3CC4CN(c5ccc(C#N)cc5-c5sc6c(c5C(=O)O)CC(C)(C)CC6)CC4C3)cc2)NC(=O)OC2COC3(C)OCCC23)cc1 (centres unmarked) [Compound I-233]	HIV-1 PR (Human immunodeficiency virus type 1 group M subtype B)	8.21
COc1ccc(S(=O)(=O)N(CC(C)C)CC(O)C(Cc2ccc(OCc3cccc(OC)c3-c3sc4c(c3C(=O)O)CC(C)(C)CC4)cc2)NC(=O)OC2COC3(C)OCCC23)cc1 (centres unmarked) [Compound I-186]	HIV-1 PR (Human immunodeficiency virus type 1 group M subtype B)	8.67
